I'd be grateful if you could share measured TGI for these entries.
System: NCI-H522 lung
assay_procedure: NCI tumour cell line growth inhibition, 48 h
One number for each entry, in µM.

query: Supply recorded TGI for "O=C([CH-]C(=O)c1ccccc1)c1ccccc1.O=C([CH-]C(=O)c1ccccc1)c1ccccc1.O=C([CH-]C(=O)c1ccccc1)c1ccccc1.[Cl-].[Zr+4]" here.
result: 46.6

Quick request: TGI for each listed item, please.
1. CCCCCCCCCC(=O)NC(Cc1ccc(O)cc1)C(=O)NCCCNCCCCNCCCNC(=O)[C@@H](N)CCCN=C(N)N (stereo not given in full)
2. CCOc1ccc(C(C)=O)cc1NC(=O)c1cccc(-c2nnn(CC)n2)c1
3. NC(CSC(c1ccccc1)(c1ccccc1)c1ccc(F)cc1)C(=O)O (stereo not given)

result:
1. 69.7
2. 0.971
3. 0.704

Quick request: TGI for each listed item, please.
1. COc1ccccc1C1C(C#N)=C(N)Oc2cc(O)ccc21 (stereo not given)
2. CCOc1cc(-c2nc3cc(F)ccc3s2)ccc1O
3. NS(=O)(=O)c1nnc(NS(=O)(=O)c2ccc([N+](=O)[O-])cc2)s1
4. C=C1C(=O)O[C@H]2[C@H]1CC/C(COC(=O)NCCc1cccc(OC)c1)=C\CC[C@@]1(C)O[C@@H]21
5. CCCCCCCCCCOC(=O)c1cc[n+](C)cc1
6. CCC(=O)Nc1ccc(NCC(=O)Nc2ccc(OC)cc2)cc1
7. Cc1nc(Sc2nc3ccc([N+](=O)[O-])cc3s2)sc1C

result:
1. 17.1
2. 24.2
3. 77.5
4. 2.69
5. 30
6. 29.5
7. 2.36
